Molecular target: Protease (Human immunodeficiency virus 1, UniProt Q9YQ12)
Sequence (Q9YQ12 whole entry): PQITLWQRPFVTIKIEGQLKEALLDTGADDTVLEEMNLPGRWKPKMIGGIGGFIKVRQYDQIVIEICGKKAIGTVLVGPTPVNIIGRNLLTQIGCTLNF
REPORTED_ENDPOINT: IC50

>>> experimental_value("CC(C)(C)NC(=O)[C@H]1CN(Cc2cccnc2)CCN1C[S+](=N)([O-])C[C@H](Cc1ccccc1)C(=O)N[C@@H]1c2ccccc2C[C@@H]1O (stereo partly specified)")
"100 µM"
